experiment: NCI Yeast Anticancer Drug Screen. Data for the mlh1 rad18 strain (AID 175); settings: S. cerevisiae mlh1 rad18 strain growth inhibition; at 50.0 µM; active compounds read high
The panel holds about 79,000 compounds, 15% with a hit somewhere; the sample as a whole holds those more often.
Parameter: growth inhibition. Scope: all listed entries.
# value in %; strip the unit string

# return recorded growth inhibition for input CC(CCOS(C)(=O)=O)OS(C)(=O)=O (stereo not given)
-7.6

Assign growth inhibition to the following record: "CCN(CC)Cc1cc(OC(=O)c2cc(OC)c(OC)c(OC)c2)cc(C(=O)OC)c1"
-10.3

Fill in growth inhibition for record O=C(O)C1CSC2(CCCN(Cc3ccccc3)C2)N1 (stereo not given)
5.2

Fill in reported growth inhibition for this entry: COC1=NN2C(OC)(c3ccccc3)c3c(-c4ccccc4)sc(-c4ccccc4)c3C2(c2ccccc2)S1 (stereo not given)
5.5

----------
experiment: NCI Yeast Anticancer Drug Screen. Data for the bub3 strain (AID 167); conditions: S. cerevisiae bub3 mutant strain, at 50.0 µM, active compounds read high
Compounds without any hit were thinned out: in the full panel of roughly 79,000, 15% have a hit. Where a SMILES comes first, the peptide text is derived from it.
MEASUREMENT LABEL: growth inhibition (%)
Use % as the unit, but write only the number.

Some solved entries appear below for comparison.
{"columns": ["MOLECULE", "DISPLAY UNIT", "OBSERVED"],
 "data": [
  ["CC1C(c2ccccc2)NC(c2ccccc2)C(C)C1(O)c1ccccc1 (stereo unspecified)", "%", 11.1],
  ["O=C(NO)/C(CC(=O)c1ccccc1O)=N\\O", "%", -4.15],
  ["O=c1[nH]c(-c2ccccc2)nc2cc([N+](=O)[O-])c(/C(Cl)=C/c3ccccc3)cc12", "%", -1]
]}

Return the recorded growth inhibition value; entry: "O=S(=O)(O/C(=C(\OS(=O)(=O)C(F)(F)C(F)(F)C(F)(F)C(F)(F)F)c1ccccc1)c1ccccc1)C(F)(F)C(F)(F)C(F)(F)C(F)(F)F"
7.9

Indicate its recorded growth inhibition; the molecule in question is "C[N+](C)(C)CCc1ccc2ccccc2c1"
5.7

Item "CCCCCC/C=N/Nc1ccc([N+](=O)[O-])cc1[N+](=O)[O-]" : provide growth inhibition
-6.95

Write down growth inhibition measured for item COC(=O)C(NC(=O)C(NC(=O)C(N)C(C)C)C(C)C)C(C)C (stereo not drawn) (H-Val-Val-Val-OMe; configuration not given here)
-3.4

Answer with the recorded growth inhibition of "Cc1cc(N=Cc2c(CO)cnc(C)c2O)c(N=Cc2c(CO)cnc(C)c2O)cc1C.[Zn]" only.
-2.1

Identify measured growth inhibition corresponding to "O=C(NCCCl)Nc1[nH]c(=O)ncc1Cl"
-12.4

Look up and report measured growth inhibition for this entry: CCOC(=O)CC(c1ccc2c(c1)OCO2)c1cc(OC)c(OC)c(OC)c1 (stereo unspecified)
29.1

Give the reported growth inhibition for this molecule. CC1CCCC(C(O)(C(=O)O)C2CCCCC2)C1 (stereo unspecified)
13.1

Using known records, supply growth inhibition for "CCOc1ccc(Cc2ccccc2)cc1"
-8.25

Hello, please tell me recorded growth inhibition for this one: "CCN(CC)c1ccc2c(C)c(Cc3ccccc3)c(=O)oc2c1"
31.9

Find the measured growth inhibition of "CCCCCCCCCCCCCCCc1nnc(SC)s1" and report it.
-3.15

Give the measured growth inhibition for O=C(c1ccccc1)N1C2C3CC(OCc4ccccc4)(OCc4ccccc4)C(O3)C21 (stereo unspecified)
16.8
